Experiment: recombinant barcode read abundance after kanamycin selection (control-corrected) (log10(CPM+1)); higher = more efficient recombination; sequences stand for … in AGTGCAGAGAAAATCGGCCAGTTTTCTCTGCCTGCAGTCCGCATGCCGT…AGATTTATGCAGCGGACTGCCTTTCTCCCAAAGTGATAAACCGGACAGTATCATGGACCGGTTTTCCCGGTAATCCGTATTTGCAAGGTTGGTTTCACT; site = the 11-nt target;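 further: IS621 recombinase and bridge RNA in Escherichia coli cells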
Decision: recombinant barcode read abundance (log10) compared against 0.08; not below it gives True, below it gives False.

primary_sequence: ACTAGGACTTGGGTTCTAACCTGTTGCGT (site ACTAGGACTTC)
label_value: True

primary_sequence: CCAGCAGCTTGGGTTCTAACCTGTTGCCT (site CCAGTAGCTAG)
label_value: True

primary_sequence: TCAAATTCTTGGGTTCTAACCTGTTGCCT (site TCAAATTCTAG)
label_value: False

primary_sequence: GTCACTACTTGGGTTCTAACCTGTTGCCG (site GTCTCTACTCG)
label_value: True

primary_sequence: GGGGCCTCTTGGGTTCTAACCTGTTGCAA (site AGGGCCTCTCT)
label_value: True

I'd appreciate it if you could say whether TAGTATCCTTGGGTTCTAACCTGTTGCGT (site TAGTGTCCTAC) has recombinant barcode read abundance (log10) at least equal to 0.08.
False

Entry TTATAAGCTTGGGTTCTAACCTGTTGCCA (site GTATGAGCTTG) : is its recombinant barcode read abundance (log10) no less than 0.08?
False

Determine whether this sequence has recombinant barcode read abundance (log10) no lower than 0.08: ACGTGCTCTTGGGTTCTAACCTGTTGCCT (site ATGTGCTCTAG)
True
